Listed compounds paired with reported logD
Assay Text: Lipophilicity, log D of the compound
Run Parameters: octanol/water
Format: numeric value only, no unit, no commentary.

CN(C)C(=O)c1ccc(CN2CCC(c3ccc(C(=O)Nc4ccccc4N)cc3)CC2)cc1    1.53
CNC(=O)c1ccc(CN2CCC(c3ccc(C(=O)Nc4ccccc4N)cc3)CC2)cc1    1.99

Lab book: logD of `Nc1ccccc1NC(=O)c1ccc(C2CCN(CCC(=O)Nc3ccccc3F)CC2)cc1` noted as 2.76

Lab book: logD of `Nc1ccccc1NC(=O)c1ccc(N2CCOCC2)cc1` noted as 1.2

Lab book: logD of `Nc1ccccc1NC(=O)c1ccc(C2CCN(Cc3ccc(C(=O)NC4CC4)cc3)CC2)cc1` noted as 2.31
